# assay_name: sensitizers of A549 cells to miR-34 induction, primary screen, imaging, A549 dox-inducible miR-34, nuclei and caspase counts (AID 1347080)
# measurement_context: A549 miR-34 inducible, Hoechst nuclei count, 48 h; measured here: relative caspase fold change +Dox/-Dox
metric_name: fold change

Solved entries:
[[record]]
molecule = "CC[C@@H]1/C=C/C=C/C[C@H](C)[C@@H](O)[C@](C)(O)C(=O)[C@H](C)[C@@H](O)[C@H](C)C(=O)[C@H](C)[C@@H](O)[C@H](C)/C=C/C(=O)O[C@H]2[C@@H](C)[C@@H](CC1)O[C@@]1(CC[C@@H](C)[C@@H](C[C@H](C)O)O1)[C@@H]2C"
metric_name = "fold change"
result = 0.921

[[record]]
molecule = "NC1=NC(=O)C(c2ccccc2)O1 (centres undefined)"
metric_name = "fold change"
result = 2.22

[[record]]
molecule = "C1=C2CCCN[C@H]2[C@@H]2C[C@H]1[C@H]1CCCCN1C2"
metric_name = "fold change"
result = 1.03


Please look at the following molecule next.
So for `CCCCC/C=C\C/C=C\C/C=C\C/C=C\CCCC(=O)NC` , the logged fold change turned out to be 2.18

----------
# assay_name: growth inhibition of GSK3B-pretreated HCT116 cells – cell-based, CellTiter-Glo, 0.2 to 20 µM (AID 1117336)
# measurement_context: HCT116 viability after GSK3B inhibitor, at 20 µM, stronger effect = higher value
metric_name: viability decrease (%)
Answers are plain numbers, in %.

[[record]]
compound = "COC(C)(C)CCCC(C)C/C=C/C(C)=C/C(=O)OC(C)C (stereo not drawn)"
quantitative_readout = 30.9

[[record]]
compound = "O=[N+]([O-])C(Br)(CO)CO"
quantitative_readout = -19.2

[[record]]
compound = "CC(C)(C)c1ccc(O)cc1"
quantitative_readout = -1.5

[[record]]
compound = "COc1ccc(C(=O)N2CCCC2=O)cc1"
quantitative_readout = -7.2

[[record]]
compound = "CC(C)NCC(O)c1ccc([N+](=O)[O-])cc1 (stereo not drawn)"
quantitative_readout = -1


For each entry beneath this line, provide reported viability decrease.
1. CC(C)C(Br)C(=O)NC(N)=O (stereo not drawn)
2. NC1=NC(=O)C(c2ccccc2)O1 (stereo not drawn)
3. COc1cccc(C(=O)CCN[C@@H](C)[C@H](O)c2ccccc2)c1
4. CCOC(=O)CC(SP(=S)(OC)OC)C(=O)OCC (stereo not drawn)
5. Oc1cccc2cccnc12
6. CCc1ccc(C2CCNCC2)cc1

Solution:
1: -0.05; 2: -2.4; 3: -1.3; 4: -29.7; 5: -3.1; 6: -2.8

For each entry beneath this line, provide reported viability decrease.
1. CCOC(=O)NC(C)(C)Cc1ccc(Cl)cc1
2. C[C@]12CC[C@@H]3c4ccc(OC(=O)N(CCCl)CCCl)cc4CC[C@H]3[C@@H]1CC[C@@H]2O

Solution:
[13.6, 18.1]

----------
# target_of_assay: Single-stranded DNA-binding protein (Escherichia coli (strain K12)) (UniProt P0AGE0)
# assay_name: E. coli SSB displacement from DNA, counter-screen for HCV NS3 helicase inhibitor project, biochemical, fluorescence polarization, NIH Clinical Collection (AID 743271)
# measurement_context: stronger effect = higher value, concentration not given here
Please respond with reported inhibition for every item in the list.
Numbers only, in %.

[[record]]
compound = "CC(C)N(CCC(C(N)=O)(c1ccccc1)c1ccccn1)C(C)C (centres undefined)"
target_of_assay = "Single-stranded DNA-binding protein (Escherichia coli (strain K12)) (UniProt P0AGE0)"
readout_units = "%"
quantitative_readout = -3.53

[[record]]
compound = "CNCC(O)c1ccc(O)cc1 (centres undefined)"
target_of_assay = "Single-stranded DNA-binding protein (Escherichia coli (strain K12)) (UniProt P0AGE0)"
readout_units = "%"
quantitative_readout = -0.39

[[record]]
compound = "COc1ccc(CCN)cc1OC"
target_of_assay = "Single-stranded DNA-binding protein (Escherichia coli (strain K12)) (UniProt P0AGE0)"
readout_units = "%"
quantitative_readout = 5.91


For each entry beneath this line, provide reported inhibition.
1. COc1cc(N)c(Cl)cc1C(=O)NC1CN2CCC1CC2 (centres undefined)
2. Cc1ncc2n1-c1ccc(Cl)cc1C(c1ccccc1F)=NC2
3. NCCc1ccccn1
4. CN1CCN(C(=O)O[C@H]2c3nccnc3C(=O)N2c2ccc(Cl)cn2)CC1
5. CCC1(c2ccc(N)cc2)CCC(=O)NC1=O (centres undefined)

Solution:
1. 9.91
2. -3.18
3. -1.64
4. -4.29
5. -2

For each entry beneath this line, provide reported inhibition.
1. CC12CCC(=O)C=C1CCC1C2CCC2(C)C(O)CCC12 (centres undefined)
2. NC1=NC(=O)C(c2ccccc2)O1 (centres undefined)
3. C=C1C[C@@H]2[C@H](CC[C@]3(C)C(=O)CC[C@@H]23)[C@@]2(C)C=CC(=O)C=C12
4. C[N+]1(CCC(C(N)=O)(c2ccccc2)c2ccccc2)CCCCC1
5. CCN(CC)CCOC(=O)C(O)(c1ccccc1)c1ccccc1

Solution:
-3.53
1.44
2.98
-0.1
-0.87

For each entry beneath this line, provide reported inhibition.
1. CC(C)c1cccc(C(C)C)c1O
2. CN=C1CN(O)C(c2ccccc2)=c2cc(Cl)ccc2=N1
3. FC(F)(F)c1cccc(N2CCNCC2)c1
4. c1ccc2c3c([nH]c2c1)CNCC3

Solution:
[4.1, 1.97, -3.95, 5.12]

The values you see were collected from PubChem BioAssay.
